Target: Autotaxin (Homo sapiens)
Assay: Inhibition of human recombinant ATX using ABTS as substrate by absorbance based analysis
experimental_readout: IC50

Any idea what IC50 was measured for O=C1S/C(=C\c2ccc(OCc3ccccc3B(O)O)cc2)C(=O)N1Cc1ccc(F)cc1 ?
> 5 nM

###

Biological target: Carbonic anhydrase 9 (Homo sapiens)
experimental_readout: pKi
Give bare numbers, as −log10 of the molar value.

Any idea what pKi was measured for OB1OCc2ccc(NC(=S)Nc3ccc(C(F)(F)F)cc3)cc21 ?
7.03

###

Molecular target: Autotaxin (Homo sapiens)
Experiment: Inhibition of human recombinant ATX
experimental_readout: pIC50
One number for each entry, as −log10 of the molar value.

Any idea what pIC50 was measured for O=C1N=C(N2CCN(Cc3ccc(C(=O)O)cc3)CC2)S/C1=C\c1ccc(Cl)c(Cl)c1 ?
7.60
